Let's look at some IC50 data for UniProtKB Q63931 that I collected from the literature.
Numbers only here, please. The scale is nM.

Lookup: GET /values?readout=IC50&system=UniProtKB Q63931&item= Cc1cccc(NC(=O)N[C@H](COC(=O)N2CCCC2)C(=O)N2CCC(C(=O)c3ccccc3)CC2)c1
Found: 1400

Lookup: GET /values?readout=IC50&system=UniProtKB Q63931&item= Cc1ccccc1NC(=O)NCCCC[C@H](NC(=O)C(Cc1c[nH]c2ccccc12)NC(=O)OC(C)(C)C)C(=O)NCCCCC(=O)N(C)C(Cc1ccccc1)C(N)=O (some centres not stated)
Found: 1180

Lookup: GET /values?readout=IC50&system=UniProtKB Q63931&item= Cc1cccc(NC(=O)N[C@H](COC(=O)N(C)C)C(=O)N2CCC(C(=O)c3ccccc3)CC2)c1
Found: 1300

Lookup: GET /values?readout=IC50&system=UniProtKB Q63931&item= COC(=O)c1cccc(NC(=O)N[C@@H]2C[C@H](C3CCCCC3)c3ccc(C)cc3N(CC(=O)NC(C)(C)C)C2=O)c1
Found: 370

Lookup: GET /values?readout=IC50&system=UniProtKB Q63931&item= CC(C)(C)NC(=O)CN1C(=O)[C@H](NC(=O)Nc2cccc(Cl)c2)C[C@H](C2CCCCC2)c2ccccc21
Found: 171

Lookup: GET /values?readout=IC50&system=UniProtKB Q63931&item= Cc1ccc2c(c1)N(CC(=O)NC(C)(C)C)C(=O)[C@H](NC(=O)Nc1cccc(Cl)c1)C[C@@H]2C1CCCCC1
Found: 560

* * *

Sequence of the target: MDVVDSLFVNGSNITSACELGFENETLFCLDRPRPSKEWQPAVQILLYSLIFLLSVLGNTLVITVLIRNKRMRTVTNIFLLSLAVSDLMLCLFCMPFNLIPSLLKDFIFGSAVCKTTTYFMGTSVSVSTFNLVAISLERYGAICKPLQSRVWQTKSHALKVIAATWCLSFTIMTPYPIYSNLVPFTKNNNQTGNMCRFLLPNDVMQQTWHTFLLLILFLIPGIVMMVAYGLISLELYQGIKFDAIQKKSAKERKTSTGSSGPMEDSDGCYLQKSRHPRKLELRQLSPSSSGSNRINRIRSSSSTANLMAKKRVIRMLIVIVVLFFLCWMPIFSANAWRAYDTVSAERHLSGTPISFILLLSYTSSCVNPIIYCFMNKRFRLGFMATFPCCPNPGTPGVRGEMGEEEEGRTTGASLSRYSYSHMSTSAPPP
Let's look at some pIC50 data for the protein given by its sequence that I collected from the literature.
When answering, recall that pIC50 equals minus log10 of the concentration in mol/L, and write that number alone.

Lookup: May I ask what pIC50 has been recorded for Cc1ccccc1NC(=O)NCCCC[C@H](NC(=O)C(Cc1c[nH]c2ccccc12)NC(=O)OC(C)(C)C)C(=O)NCCC(=O)N(C)C(Cc1ccccc1)C(N)=O (some centres undefined) ?
Found: 7.57

Lookup: May I ask what pIC50 has been recorded for Cc1cccc(NC(=O)N[C@H](COCc2ccccc2)C(=O)N2CCC(C(=O)c3ccc(F)cc3)CC2)c1 ?
Found: 6.38

Lookup: May I ask what pIC50 has been recorded for Cc1cccc(NC(=O)N[C@H](C[S+]([O-])Cc2ccccc2)C(=O)N2CCC(C(=O)c3ccccc3)CC2)c1 (some centres undefined) ?
Found: 6.10

Lookup: May I ask what pIC50 has been recorded for Cc1cccc(NC(=O)N[C@@H]2C[C@H](c3ccccc3)c3ccccc3N(CC(=O)NC(C)(C)C)C2=O)c1 ?
Found: 6.54

* * *

Let's look at some log10 of IC50 data for Cholecystokinin receptor type A (Cavia porcellus, UniProt Q63931) that I collected from the literature.
Log scale reminder: IC50 in nM, then log10 taken.

Lookup: GET /values?readout=log10 of IC50&system=Cholecystokinin receptor type A (Cavia porcellus, UniProt Q63931)&item= Cc1cccc(NC(=O)N[C@H](CC(C)C)C(=O)N2CCC(C(=O)c3ccccc3)CC2)c1
Found: 3.30

Lookup: GET /values?readout=log10 of IC50&system=Cholecystokinin receptor type A (Cavia porcellus, UniProt Q63931)&item= Cc1cccc(NC(=O)N[C@H](CC(=O)OCc2ccccc2)C(=O)N2CCC(C(=O)c3ccccc3)CC2)c1
Found: 3.11

Lookup: GET /values?readout=log10 of IC50&system=Cholecystokinin receptor type A (Cavia porcellus, UniProt Q63931)&item= CCS(=O)(=O)NC(=O)c1cccc(NC(=O)N[C@@H]2C[C@H](c3ccccc3)c3ccc(C)cc3N(CC(=O)NC(C)(C)C)C2=O)c1
Found: 3.04

Lookup: GET /values?readout=log10 of IC50&system=Cholecystokinin receptor type A (Cavia porcellus, UniProt Q63931)&item= Cc1ccc2c(c1)[C@@H](c1ccccc1)C[C@@H](NC(=O)Nc1cccc(Cl)c1)C(=O)N2CC(=O)NC(C)(C)C
Found: 2.50

Lookup: GET /values?readout=log10 of IC50&system=Cholecystokinin receptor type A (Cavia porcellus, UniProt Q63931)&item= Cc1cccc(NC(=O)N[C@@H](CC(C)C)C(=O)N2CCC(C(=O)c3ccccc3)CC2)c1
Found: 3.72

Lookup: GET /values?readout=log10 of IC50&system=Cholecystokinin receptor type A (Cavia porcellus, UniProt Q63931)&item= CC(C)(C)OC(=O)N[C@@H](Cc1c[nH]c2ccccc12)C(=O)N[C@@H](CCCCNC(=O)/C=C\c1ccc(O)cc1)C(=O)N[C@H](CNN[C@@H](Cc1ccccc1)C(N)=O)CC(=O)O
Found: 2.11

* * *

Let's look at some IC50 data for the protein given by its sequence that I collected from the literature.
Target chain: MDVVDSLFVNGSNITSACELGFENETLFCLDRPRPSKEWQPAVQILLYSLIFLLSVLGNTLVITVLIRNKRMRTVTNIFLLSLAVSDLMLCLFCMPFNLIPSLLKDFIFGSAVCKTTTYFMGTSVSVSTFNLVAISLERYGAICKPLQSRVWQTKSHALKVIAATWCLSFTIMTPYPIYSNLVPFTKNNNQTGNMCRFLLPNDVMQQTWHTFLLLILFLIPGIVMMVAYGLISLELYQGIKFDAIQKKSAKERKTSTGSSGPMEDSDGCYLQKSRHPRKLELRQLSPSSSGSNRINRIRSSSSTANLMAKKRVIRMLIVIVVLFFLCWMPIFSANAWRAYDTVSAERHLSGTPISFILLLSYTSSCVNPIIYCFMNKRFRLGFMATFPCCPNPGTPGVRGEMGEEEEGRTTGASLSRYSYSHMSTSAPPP
Numbers only here, please. The scale is nM.

Lookup: May I ask what IC50 has been recorded for Cc1ccc2c(c1)N(CC(=O)NC(C)(C)C)C(=O)[C@H](NC(=O)Nc1cccc(C(=O)NS(C)(=O)=O)c1)C[C@@H]2c1ccccc1 ?
Found: 970

Lookup: May I ask what IC50 has been recorded for Cc1ccc2c(c1)N(CC(=O)OC(C)(C)C)C(=O)[C@H](NC(=O)Nc1cccc(Cl)c1)C[C@@H]2c1ccccc1 ?
Found: 34

Lookup: May I ask what IC50 has been recorded for Cc1ccc2c(c1)N(CC(=O)NC(C)(C)C)C(=O)[C@H](NC(=O)Nc1cccc(-c3nnn[nH]3)c1)C[C@@H]2Cc1ccccc1 ?
Found: 34

Lookup: May I ask what IC50 has been recorded for CC(C)(NC(=O)CN1C(=O)[C@H](NC(=O)Nc2cccc(Cl)c2)C[C@H](c2ccccc2)c2ccccc21)c1ccccc1 ?
Found: 460

Lookup: May I ask what IC50 has been recorded for Cc1cccc(NC(=O)N[C@@H]2C[C@H](c3ccccc3C)C[C@H](c3ccccc3)N(CC(=O)Nc3ccccc3Cl)C2=O)c1 ?
Found: 1.1
